- Test system: HCT116
- assay_notes: efficacy (maximum % inhibition of viability vs DMSO); higher = more cytotoxic
- measurement_context: 72 h; ICRF193 0 nM
Counter-ions that a name gives are not always drawn.
Recorded efficacy for the following compounds

compound | efficacy [%]
CC(C)C[C@H](NC(=O)[C@H](Cc1ccccc1)NC(=O)c1cnccn1)B(O)O [Bortezomib] | 93.7
COC1=CC(=O)C[C@@H](C)[C@]12Oc1c(Cl)c(OC)cc(OC)c1C2=O [Griseofulvin] | 66.1
C=C1/C(=C\C=C2/CCC[C@]3(C)[C@@H]([C@H](C)CC[C@@H](O)C(C)C)CC[C@@H]23)C[C@@H](O)C[C@@H]1O [Tacalcitol] | 49.2
COc1c(C)c2c(c(O)c1C/C=C(\C)CCC(=O)O)C(=O)OC2 [Mycophenolic acid] | 70.7
C=CCNc1c(O)cc2c(O)c1C[C@@H](C)C[C@H](OC)[C@H](O)[C@@H](C)/C=C(\C)[C@H](OC(N)=O)[C@@H](OC)/C=C\C=C(/C)C(=O)N2 [Retaspimycin (Hydrochloride)] | 80.4
NC(=O)[C@@H]1CCCN1C(=O)[C@H](Cc1c[nH]cn1)NC(=O)[C@@H]1CCC(=O)N1 [PROTIRELIN] | 69.8
CCCCN(CCCC)CCC(O)c1cc2c(Cl)cc(Cl)cc2c2cc(C(F)(F)F)ccc12 (configuration not stated) [Halofantrine] | 66.9
